HC10 (concentration that induced 10% hemolysis of human red blood cells): recorded values
System: human red blood cells (hRBCs)
EXPERIMENT: Hemolytic activity assay
Assay type: cell-based
ASSAY SETUP: hRBCs in PBS, 37 °C, 1 h, absorbance 565 nm; 108.7 µg/mL(200 µM) used when no detectable hemolytic activity
ENDPOINT: HC10 (concentration that induced 10% hemolysis of human red blood cells) (µg/mL)

| SUBSTANCE | REPORTED |
| --- | --- |
| Ac-WRKWLKWLAKKKK-NH2 [Peptide W5K02] | 16.7 |
| Ac-KKWRKWLKWLAKK-NH2 [W5K/A9W] | 30.0 |
| Ac-KKKWRKWLKWLAK-NH2 [Peptide W5K12] | 41.7 |
| Ac-KWRKWLKWLAKKK-NH2 [Peptide W5K01] | 70.9 |

---

Test system: S. aureus ATCC 33591
ASSAY SETUP: LYM broth, pH 5.5
MIC: recorded values
ENDPOINT: MIC (µg/mL)

| SUBSTANCE | REPORTED |
| --- | --- |
| Ac-KKKWRKWLKWLAK-NH2 [Peptide W5K12] | 3.13 |
| Ac-WLKWLAKKKKWRK-NH2 [Peptide W5K05] | 3.13 |
| Ac-KKWRKWLKWLAKK-NH2 [W5K/A9W] | 3.13 |
| Ac-KKKKWRKWLKWLA-NH2 [Peptide W5K11] | 3.13 |
| Ac-KWLAKKKKWRKWL-NH2 [Peptide W5K07] | 25 |
| Ac-LAKKKKWRKWLKW-NH2 [Peptide W5K09] | 12.5 |
| Ac-WLAKKKKWRKWLK-NH2 [Peptide W5K08] | 25 |
| Ac-KWLKWLAKKKKWR-NH2 [Peptide W5K04] | 12.5 |
| Ac-RKWLKWLAKKKKW-NH2 [Peptide W5K03] | 25 |
| Ac-AKKKKWRKWLKWL-NH2 [Peptide W5K10] | 3.13 |
| Ac-WRKWLKWLAKKKK-NH2 [Peptide W5K02] | 6.25 |
| Ac-KWRKWLKWLAKKK-NH2 [Peptide W5K01] | 6.25 |
| Ac-LKWLAKKKKWRKW-NH2 [Peptide W5K06] | 6.25 |

---

System: Pseudomonas aeruginosa Migula (ATCC 27853)
ASSAY SETUP: LYM broth, 1.5 mM MgCl2
ENDPOINT: MIC (µg/mL)

| SUBSTANCE | ENDPOINT | UNITS LABEL | REPORTED |
| --- | --- | --- | --- |
| Ac-KKKWRKWLKWLAK-NH2 [Peptide W5K12] | MIC | µg/mL | 1.56 |
| Ac-KKWRKWLKWLAKK-NH2 [W5K/A9W] | MIC | µg/mL | 3.13 |
| Ac-WLAKKKKWRKWLK-NH2 [Peptide W5K08] | MIC | µg/mL | 6.25 |
| Ac-RKWLKWLAKKKKW-NH2 [Peptide W5K03] | MIC | µg/mL | 12.5 |
| Ac-AKKKKWRKWLKWL-NH2 [Peptide W5K10] | MIC | µg/mL | 3.13 |
| Ac-LAKKKKWRKWLKW-NH2 [Peptide W5K09] | MIC | µg/mL | 6.25 |
| Ac-KWLAKKKKWRKWL-NH2 [Peptide W5K07] | MIC | µg/mL | 12.5 |
| Ac-KKKKWRKWLKWLA-NH2 [Peptide W5K11] | MIC | µg/mL | 1.56 |
| Ac-KWRKWLKWLAKKK-NH2 [Peptide W5K01] | MIC | µg/mL | 6.25 |
| Ac-KWLKWLAKKKKWR-NH2 [Peptide W5K04] | MIC | µg/mL | 12.5 |
| Ac-LKWLAKKKKWRKW-NH2 [Peptide W5K06] | MIC | µg/mL | 6.25 |
| Ac-WRKWLKWLAKKKK-NH2 [Peptide W5K02] | MIC | µg/mL | 6.25 |
| Ac-WLKWLAKKKKWRK-NH2 [Peptide W5K05] | MIC | µg/mL | 3.13 |
